- Tested on: THP-1
- Assay text: Cytotoxicity against human THP1 cells after 72 hrs by MTT assay
- Assay type: functional, cell-based
- Particulars: THP-1, 72 h
Endpoint: IC50 (µM)
Return type: number; implicit unit µM.

Ask | Name the recorded IC50 of the item C=C1C2=C(C(=O)N1OC)[C@H](OC(=O)CCCCCl)[C@@](C)(O)[C@H](CCCCC)O2 in your answer.
Reply | 4.6

Ask | Name the recorded IC50 of the item C=C1C2=C(C(=O)N1OC)[C@H](OC(=O)CCl)[C@@](C)(O)[C@H](CCCCC)O2 in your answer.
Reply | 11

Ask | Name the recorded IC50 of the item COc1cc([C@@H]2c3cc4c(cc3[C@@H](O[C@@H]3O[C@@H]5CO[C@@H](C)O[C@H]5[C@H](O)[C@H]3O)[C@H]3COC(=O)[C@H]23)OCO4)cc(OC)c1O [ETOPOSIDE] in your answer.
Reply | 1

Ask | Name the recorded IC50 of the item C=C1C2=C(C(=O)N1OC)[C@H](O)[C@@](C)(O)[C@H](CCCCC)O2 in your answer.
Reply | 19

###

Kindly supply the reported IC50 values for the records listed here.
- System: PC-3
- Assay text: Cytotoxicity against human PC3 cells after 72 hrs by MTT assay
- Type: functional, cell-based
- Particulars: PC-3, 72 h
Return type: number; implicit unit µM.

Ask | Name the recorded IC50 of the item COc1cc([C@@H]2c3cc4c(cc3[C@@H](O[C@@H]3O[C@@H]5CO[C@@H](C)O[C@H]5[C@H](O)[C@H]3O)[C@H]3COC(=O)[C@H]23)OCO4)cc(OC)c1O [ETOPOSIDE] in your answer.
Reply | 2.7

Ask | Name the recorded IC50 of the item C=C1C2=C(C(=O)N1OC)[C@H](O)[C@@](C)(O)[C@H](CCCCC)O2 in your answer.
Reply | 32

Ask | Name the recorded IC50 of the item C=C1C2=C(C(=O)N1OC)[C@H](OC(=O)CCCCCl)[C@@](C)(O)[C@H](CCCCC)O2 in your answer.
Reply | 9.2

Ask | Name the recorded IC50 of the item C=C1C2=C(C(=O)N1OC)[C@H](OC(=O)CCl)[C@@](C)(O)[C@H](CCCCC)O2 in your answer.
Reply | 2.4

Ask | Name the recorded IC50 of the item C=C1C2=C(C(=O)N1OC)[C@@H](F)[C@@](C)(O)[C@H](CCCCC)O2 in your answer.
Reply | 12
